- System: Artemia salina
- METHOD_NOTES: Action against Artemia salina nauplii
- Type: in vivo
- Design: key: 0: no change; 1: slight change; 1-2: animals are attacked; 2: animals are strongly attacked; 2-3: animals are nearly all dead; 3: animals are all dead
- MEASUREMENT_CONTEXT: 0,25 mg/l; 48 hours
Can you tell me Action against Artemia salina for the items I'm about to list?

Prompt line: Return Action against Artemia salina measured with Artemia salina given this compound: CCCCCCCCCCCC[n+]1ccccc1.CCC[CH2][Sn-]([Cl])([Cl])([CH2]CCC)[CH2]CCC [Example 6, Pyridine-Nlauryl / Tributyldichloro]
Response line: 2-3

Prompt line: Find Action against Artemia salina (Artemia salina) for the entry CCCCCCCCCC[N+](C)(C)CCCCCCCCCC.CCC[CH2][Sn-]([Cl])([Cl])([CH2]CCC)[CH2]CCC [Example 4]
Response line: 2

Prompt line: Record lookup: for Artemia salina, what Action against Artemia salina belongs to CCCCCCCCCCCC[N+](CCO)(CCO)Cc1ccccc1.CCC[CH2][Sn-]([Cl])([Cl])([CH2]CCC)[CH2]CCC [Example 5] ?
Response line: 2-3

Prompt line: Look up Action against Artemia salina with Artemia salina for this compound: CCCCCCCCCCCCCC[N+](C)(C)Cc1ccccc1.CCC[CH2][Sn-]([Cl])([Cl])([CH2]CCC)[CH2]CCC [Example 2]
Response line: 2-3

Prompt line: Requested read-out Action against Artemia salina, target or system Artemia salina, entry CCCCCCCCCCCCCC[N+](CCO)(CCO)Cc1ccccc1.CCC[CH2][Sn-]([Cl])([Cl])([CH2]CCC)[CH2]CCC [Example 24]
Response line: 2-3

Prompt line: Give recorded Action against Artemia salina with Artemia salina for the following compound: CCCCCCCCCCCCCCCC[n+]1ccccc1.CCC[CH2][Sn-]([Cl])([Cl])([CH2]CCC)[CH2]CCC [Example 7, Pyridine-Nhexadecyl / Tributyldichloro]
Response line: 2-3

* * *

- Tested on: Artemia salina
- METHOD_NOTES: Action against Artemia salina nauplii
- Assay type: in vivo
- Design: key: 0: no change; 1: slight change; 1-2: animals are attacked; 2: animals are strongly attacked; 2-3: animals are nearly all dead; 3: animals are all dead
- MEASUREMENT_CONTEXT: 0,5 mg/l; 6 hours
Exercise: for every item that follows, state its recorded Action against Artemia salina.

Prompt line: Request the reported Action against Artemia salina associated with CCCCCCCCCCCC[n+]1ccccc1.CCC[CH2][Sn-]([Cl])([Cl])([CH2]CCC)[CH2]CCC [Example 6, Pyridine-Nlauryl / Tributyldichloro]
Response line: 1-2

Prompt line: Could you share which Action against Artemia salina value was measured for CCCCCCCCCCCCCC[N+](CCO)(CCO)Cc1ccccc1.CCC[CH2][Sn-]([Cl])([Cl])([CH2]CCC)[CH2]CCC [Example 24] ?
Response line: 1-2

Prompt line: Dear colleague, I am looking for the recorded Action against Artemia salina of the following molecule: CCCCCCCCCCCCCC[N+](C)(C)Cc1ccccc1.CCC[CH2][Sn-]([Cl])([Cl])([CH2]CCC)[CH2]CCC [Example 2]
Response line: 1-2

Prompt line: Report Action against Artemia salina for CCCCCCCCCC[N+](C)(C)CCCCCCCCCC.CCC[CH2][Sn-]([Cl])([Cl])([CH2]CCC)[CH2]CCC [Example 4] please.
Response line: 1-3

Prompt line: Which Action against Artemia salina value is on record for CCCCCCCCCCCC[N+](CCO)(CCO)Cc1ccccc1.CCC[CH2][Sn-]([Cl])([Cl])([CH2]CCC)[CH2]CCC [Example 5] ?
Response line: 1-2

Prompt line: Action against Artemia salina for CCCCCCCCCCCCCCCC[n+]1ccccc1.CCC[CH2][Sn-]([Cl])([Cl])([CH2]CCC)[CH2]CCC [Example 7, Pyridine-Nhexadecyl / Tributyldichloro] ?
Response line: 1-2

* * *

- System: mixed culture of bacteria
- Type: cell-based
- Design: key: +: growth, no destruction; (+): growth less than that of control (>10 colonies), slight destruction; (-): slight growth (1-10 colonies); -: no growth, destruction
- MEASUREMENT_CONTEXT: 60 mg/l; culture diluted 1/1000 in Tyrode
QUANTITY: Growth (destruction of a mixed culture of bacteria)

Please review the entries below; each comes with its answer.
# MOL, TESTED_SYSTEM, RESULT
rows = [
    ("CCCCCCCCCCCCCC[N+](CCO)(CCO)Cc1ccccc1.CCC[CH2][Sn-]([Cl])([Cl])([CH2]CCC)[CH2]CCC", "mixed culture of bacteria", "+"),
    ("CCCCCCCCCCCC[N+](CCO)(CCO)Cc1ccccc1.CCC[CH2][Sn-]([Cl])([Cl])([CH2]CCC)[CH2]CCC", "mixed culture of bacteria", "+"),
    ("CCCCCCCCCCCC[n+]1ccccc1.CCC[CH2][Sn-]([Cl])([Cl])([CH2]CCC)[CH2]CCC", "mixed culture of bacteria", "+"),
    ("CCCCCCCCCCCCCCCC[N+](C)(C)C.CCC[CH2][Sn-]([Cl])([Cl])([CH2]CCC)[CH2]CCC", "mixed culture of bacteria", "-"),
]

Turning to the following compound.
Prompt line: Which value of Growth (destruction of a mixed culture of bacteria) has been reported for CCCCCCCCCCCCCCCC[n+]1ccccc1.CCC[CH2][Sn-]([Cl])([Cl])([CH2]CCC)[CH2]CCC in the records?
Response line: -
